# System: Staphylococcus aureus V41
# Protocol description: MIC, standard agar-dilution assay
# Assay type: cell-based
Endpoint name: MIC

>>> value_measured("CN[C@H](CC(C)C)C(=O)N[C@H]1C(=O)N[C@@H](CC(N)=O)C(=O)N[C@H]2C(=O)N[C@H]3C(=O)N[C@H](C(=O)N[C@H](C(=O)O)c4cc(O)cc(O)c4-c4cc3ccc4O)[C@H](O[C@H]3C[C@](C)(NCc4ccc(Cl)cc4)[C@@H](O)[C@H](C)O3)c3ccc(cc3)Oc3cc2cc(c3O[C@@H]2O[C@H](CO)[C@@H](O)[C@H](O)[C@H]2O[C@H]2C[C@](C)(N)[C@@H](O)[C@H](C)O2)Oc2ccc(cc2Cl)[C@H]1O")
".5 µg/mL"
>>> value_measured("CN[C@H](CC(C)C)C(=O)N[C@H]1C(=O)N[C@@H](CC(N)=O)C(=O)N[C@H]2C(=O)N[C@H]3C(=O)N[C@H](C(=O)N[C@H](C(=O)O)c4cc(O)cc(O)c4-c4cc3ccc4O)[C@H](O[C@H]3C[C@](C)(NCc4ccc(Cl)cc4)[C@@H](O)[C@H](C)O3)c3ccc(cc3)Oc3cc2cc(c3O[C@@H]2O[C@H](CO)[C@@H](O)[C@H](O)[C@H]2O[C@H]2C[C@](C)(NCc3ccc(Cl)cc3)[C@@H](O)[C@H](C)O2)Oc2ccc(cc2Cl)[C@H]1O")
"2 µg/mL"
